FYI, the data here is from patent US20260001914A1.

Can you tell me pEC50 for the items I'm about to list?
- target-system: KRAS-G12D protein (Homo sapiens, UniProt P01116, G12D)
- Sequence (P01116 1-188 isoform P01116-2 G12D): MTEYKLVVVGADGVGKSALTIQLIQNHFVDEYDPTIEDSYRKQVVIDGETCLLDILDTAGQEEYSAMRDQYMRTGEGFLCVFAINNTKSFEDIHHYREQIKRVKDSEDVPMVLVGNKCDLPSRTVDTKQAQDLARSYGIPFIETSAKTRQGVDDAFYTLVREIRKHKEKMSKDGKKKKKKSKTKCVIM
- experiment-summary: SOS-mediated nucleotide exchange assay (BODIPY-GDP / Tb-streptavidin TR-FRET)
- Type: biochemical
*1 amine or outer side, *2 acyl side, *3 side chain or, on linkers, in order; H or OH if unused. Where a SMILES comes first, the peptide text is derived from it. Bridges are numbered along the chain shown (N, C = ends). [ ]: non-standard residue; d: D form. Phe(4-guanidino) = N=C(N)Nc1ccc(C[C@H](N)C(=O)O)cc1; Ala(pyrimidin-5-yl) = N[C@@H](Cc1cncnc1)C(=O)O; NMe3Pal(5-F) = CN[C@@H](Cc1cncc(F)c1)C(=O)O; Trp(1-Me) = Cn1cc(C[C@H](N)C(=O)O)c2ccccc21; X25 = O=C([C@H](Cc1ccc(F)nc1)N[*:1])[*:2]; X3 = CN([C@@H](Cc1cncnc1)C(=O)[*:2])[*:1]; Lys(N3) = [N-]=[N+]=NCCCC[C@H](N)C(=O)O; X30 = O=C([C@H](Cc1ncccc1F)N[*:1])[*:2]; NMeAha = CN[C@@H](CCN=[N+]=[N-])C(=O)O; Phe(4-F) = N[C@@H](Cc1ccc(F)cc1)C(=O)O; 1Nal = N[C@@H](Cc1cccc2ccccc12)C(=O)O; NHCH2CH2SCH2CO = O=C(CSCCN[*:1])[*:2]; Ala(cPent) = N[C@@H](CC1CCCC1)C(=O)O; Phe(2-F) = N[C@@H](Cc1ccccc1F)C(=O)O; NMe3Pal = CN[C@@H](Cc1cccnc1)C(=O)O; X1 = O=C(C12CC(CN[*:1])(C1)C2)[*:2]; NMeLys(Me) = CNCCCC[C@H](NC)C(=O)O; Ala(cPr) = N[C@@H](CC1CC1)C(=O)O; NMeF = CN[C@@H](Cc1ccccc1)C(=O)O; PhLac = O=C(O)[C@@H](O)Cc1ccccc1; X79 = O=C(C1CCC(N[*:1])CC1)[*:2]; 3Pal = N[C@@H](Cc1cccnc1)C(=O)O; Ahp(2) = CCCCC[C@H](N)C(=O)O; Cba = N[C@@H](CC1CCC1)C(=O)O; hLeu = CC(C)CC[C@H](N)C(=O)O; αMeC = C[C@](N)(CS)C(=O)O; NMeA = CN[C@@H](C)C(=O)O; Nle = CCCC[C@H](N)C(=O)O
Numbers only, as −log10 of the molar value.

These solved cases illustrate the format of a correct answer.
molecule: CCCCC[C@@H]1NC(=O)[C@H](Cc2ccc(O)cc2)NC(=O)[C@H](CC(C)C)NC(=O)[C@H](Cc2ccc(O)cc2)NC(=O)[C@H](CCCNC(=N)N)NC(=O)[C@H](Cc2cn(C)c3ccccc23)NC(=O)CSC[C@@H](C(N)=O)NC(=O)[C@H](Cc2ccccc2)N(C)C1=O [compound 6, cyclo(TrplMe-R-Y-L-Y-Ahp-NMeF-Cl-ClAc)] ({CH2CO}-[Trp(1-Me)]RYLY[Ahp(2)][NMeF]C-NH2; thioether N-8)
test-result: 6.54
//
molecule: CCCC[C@@H]1NC(=O)[C@H](Cc2cccnc2)NC(=O)[C@H](CCN=[N+]=[N-])N(C)C(=O)[C@H](Cc2ccccc2)NC(=O)C23CC(CNC(=O)[C@H](Cc4cccnc4)N(C)C(=O)[C@H](CCCC)NC(=O)[C@H](Cc4ccccc4F)NC1=O)(C2)C3 [compound 245] (cyclo(F[NMeAha][3Pal][Nle][Phe(2-F)][Nle][NMe3Pal][X1]))
test-result: 6.57
//
molecule: CCCC[C@@H]1NC(=O)[C@H](Cc2ccc(O)cc2)NC(=O)[C@H](CC(C)C)NC(=O)[C@H](Cc2ccc(O)cc2)NC(=O)[C@H](CCCNC(=N)N)NC(=O)[C@H](Cc2cccc3ccccc23)NC(=O)CSC[C@H](C(N)=O)NC(=O)[C@H](Cc2ccccc2)N(C)C1=O [compound 17, cyclo(INal-R-Y-L-Y-Nle-NMeF-dCl-ClAc)] ({CH2CO}-[1Nal]RYLY[Nle][NMeF][dC]-NH2; thioether N-8)
test-result: 5.98
//
molecule: CC(C)CC[C@@H]1NC(=O)[C@H](Cc2ccccc2F)NC(=O)[C@H](CC2CC2)NC(=O)[C@H](Cc2cncnc2)NC(=O)[C@H](C)N(C)C(=O)[C@H](Cc2ccccc2)OC(=O)C23CC(CNC(=O)[C@H](Cc4cncc(F)c4)N(C)C1=O)(C2)C3 [compound 282] (cyclo([Ala(cPr)][Phe(2-F)][hLeu][NMe3Pal(5-F)][X1][PhLac][NMeA][Ala(pyrimidin-5-yl)]))
test-result: 8.70
//
molecule: CCCCC[C@@H]1NC(=O)[C@H](Cc2ccc(OC)cc2)NC(=O)[C@H](CC2CCC2)NC(=O)[C@H](Cc2ccc(NC(=N)N)cc2)NC(=O)[C@H](CCCCNC)N(C)C(=O)[C@H](Cc2ccccc2)NC(=O)CSC[C@@](C)(C(N)=O)NC(=O)[C@H](Cc2ccccc2)N(C)C1=O [compound 360] ({CH2CO}-F[NMeLys(Me)][Phe(4-guanidino)][Cba]Y(Me)[Ahp(2)][NMeF][αMeC]-NH2; thioether N-8)
test-result: 6.54
//
molecule: CCCC[C@@H]1NC(=O)[C@H](Cc2cccnc2)NC(=O)[C@H](CCCNC(=N)N)NC(=O)[C@H](Cc2ccccc2)NC(=O)C2CCC(CC2)NC(=O)[C@H](Cc2ccccc2)N(C)C(=O)[C@H](CCCC)NC(=O)[C@H](Cc2ccc(OC)cc2)NC1=O [compound 201] (cyclo([3Pal][Nle]Y(Me)[Nle][NMeF][X79]FR))
test-result: 6.59
//
molecule: CCCC[C@@H]1NC(=O)[C@H](Cc2ccc(F)nc2)NC(=O)[C@H](C)N(C)C(=O)[C@H](Cc2ccccc2)OC(=O)C23CC(CNC(=O)[C@H](Cc4ccccc4)N(C)C(=O)[C@H](CCCC)NC(=O)[C@H](Cc4ncccc4F)NC1=O)(C2)C3 [compound 228] (cyclo([NMeA][X25][Nle][X30][Nle][NMeF][X1][PhLac]))
test-result: 6.06
//
molecule: CCCC[C@@H]1NC(=O)[C@H](CCCCN=[N+]=[N-])NC(=O)[C@H](CCCNC(=N)N)NC(=O)[C@H](Cc2ccc(F)cc2)NC(=O)CSCCNC(=O)[C@H](Cc2ccccc2)N(C)C(=O)[C@H](CCCC)NC(=O)[C@H](Cc2ccc(O)cc2)NC1=O [compound 89] (cyclo([Lys(N3)][Nle]Y[Nle][NMeF][NHCH2CH2SCH2CO][Phe(4-F)]R))
test-result: 5.45
//
molecule: CC(C)CC[C@@H]1NC(=O)[C@H](Cc2ccccc2F)NC(=O)[C@H](CC2CC2)NC(=O)[C@H](Cc2cccnc2)NC(=O)[C@H](C)N(C)C(=O)[C@H](Cc2ccccc2)OC(=O)C23CC(CNC(=O)[C@H](Cc4cncc(F)c4)N(C)C1=O)(C2)C3 [compound 283] (cyclo([3Pal][Ala(cPr)][Phe(2-F)][hLeu][NMe3Pal(5-F)][X1][PhLac][NMeA]))
test-result: 8.52
//
molecule: CC(C)CC[C@@H]1NC(=O)[C@H](Cc2ccccc2F)NC(=O)[C@H](CC2CCCC2)NC(=O)[C@H](Cc2cncnc2)NC(=O)[C@H](C)N(C)C(=O)[C@H](Cc2ccccc2)OC(=O)C23CC(CNC(=O)[C@H](Cc4cncnc4)N(C)C1=O)(C2)C3 [compound 335] (cyclo([Ala(cPent)][Phe(2-F)][hLeu][X3][X1][PhLac][NMeA][Ala(pyrimidin-5-yl)]))
test-result: 9.00

Here is another molecule to look at.
[in] Given the molecule CCCC[C@@H]1NC(=O)[C@H](Cc2ccccc2F)NC(=O)[C@H](CC2CCCC2)NC(=O)[C@H](Cc2cncnc2)NC(=O)[C@H](C)N(C)C(=O)[C@H](Cc2ccccc2)OC(=O)C23CC(CNC(=O)[C@H](Cc4cccnc4)N(C)C1=O)(C2)C3 [compound 126] (cyclo([Ala(cPent)][Phe(2-F)][Nle][NMe3Pal][X1][PhLac][NMeA][Ala(pyrimidin-5-yl)])) , what is its reported pEC50?
[out] 7.65
